# experimental-system: Dopamine-D1 (Homo sapiens)
# Sequence (P21728 whole entry): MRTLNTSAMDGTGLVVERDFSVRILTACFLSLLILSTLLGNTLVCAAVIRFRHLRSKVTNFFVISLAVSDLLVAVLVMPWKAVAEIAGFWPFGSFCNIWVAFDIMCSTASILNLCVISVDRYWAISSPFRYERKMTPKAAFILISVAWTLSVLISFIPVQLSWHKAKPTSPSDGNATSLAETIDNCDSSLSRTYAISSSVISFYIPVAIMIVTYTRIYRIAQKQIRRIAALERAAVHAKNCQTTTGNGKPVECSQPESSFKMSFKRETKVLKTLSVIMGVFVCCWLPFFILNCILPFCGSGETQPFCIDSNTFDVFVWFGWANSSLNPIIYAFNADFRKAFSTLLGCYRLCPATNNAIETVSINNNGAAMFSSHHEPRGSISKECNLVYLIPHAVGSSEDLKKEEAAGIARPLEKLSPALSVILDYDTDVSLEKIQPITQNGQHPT
# experimental-details: Receptor binding Dopamine-D1
# protocol-conditions: radioligand [3H]-SCH 23390, read-out: Ki(nM) Compound 1
result-type: Ki

# Ki lookup, item Nc1cc2cccc(N3CCNCC3)c2oc1=O [Compound 1]
> 1000 nM

---

# experimental-system: UniProt P29371
# Sequence (P29371 1-465): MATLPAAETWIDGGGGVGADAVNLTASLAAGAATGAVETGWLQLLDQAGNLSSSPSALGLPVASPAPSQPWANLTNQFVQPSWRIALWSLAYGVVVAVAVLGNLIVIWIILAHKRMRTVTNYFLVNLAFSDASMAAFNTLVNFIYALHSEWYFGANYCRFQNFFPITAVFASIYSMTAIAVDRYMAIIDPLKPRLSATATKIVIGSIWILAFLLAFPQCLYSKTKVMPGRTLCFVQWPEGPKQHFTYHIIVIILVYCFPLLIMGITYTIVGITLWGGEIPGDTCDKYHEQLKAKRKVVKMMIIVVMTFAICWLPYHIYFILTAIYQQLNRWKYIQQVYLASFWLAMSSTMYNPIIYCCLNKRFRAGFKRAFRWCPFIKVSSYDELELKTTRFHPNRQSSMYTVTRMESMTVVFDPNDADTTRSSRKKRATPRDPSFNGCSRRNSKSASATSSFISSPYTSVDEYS
# experimental-details: Receptor binding Neurokinin-NK3
# protocol-conditions: radioligand [3H]-SR 142801, read-out: Ki(nM) Compound 1
result-type: Ki

Kindly state the measured Ki obtained for Nc1cc2cccc(N3CCNCC3)c2oc1=O [Compound 1] with UniProt P29371.
> 1000 nM

---

# experimental-system: Muscarine-M4 (Homo sapiens, UniProt P08173)
# Sequence (P08173 1-479): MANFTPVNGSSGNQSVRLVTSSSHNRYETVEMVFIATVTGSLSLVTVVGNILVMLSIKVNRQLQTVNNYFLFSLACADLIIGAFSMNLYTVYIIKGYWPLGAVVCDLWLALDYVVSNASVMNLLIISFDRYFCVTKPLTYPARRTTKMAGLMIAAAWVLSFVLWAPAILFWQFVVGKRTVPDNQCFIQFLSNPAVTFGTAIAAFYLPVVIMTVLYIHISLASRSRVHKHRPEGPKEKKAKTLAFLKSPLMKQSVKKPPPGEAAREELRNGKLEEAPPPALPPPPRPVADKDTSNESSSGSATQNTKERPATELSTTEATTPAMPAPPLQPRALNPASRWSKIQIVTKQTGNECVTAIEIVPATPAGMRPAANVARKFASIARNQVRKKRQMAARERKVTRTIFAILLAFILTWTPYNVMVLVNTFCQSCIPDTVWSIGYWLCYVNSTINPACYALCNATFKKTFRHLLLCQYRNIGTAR
# experimental-details: Receptor binding Muscarine-M4
# protocol-conditions: radioligand [3H]-4-DAMP, read-out: Ki(nM) Compound 1
result-type: Ki

Quick one: Ki for Nc1cc2cccc(N3CCNCC3)c2oc1=O [Compound 1] ?
> 1000 nM

---

# experimental-system: κ-opiate (Rattus norvegicus, UniProt P34975)
# Sequence (P34975 whole entry): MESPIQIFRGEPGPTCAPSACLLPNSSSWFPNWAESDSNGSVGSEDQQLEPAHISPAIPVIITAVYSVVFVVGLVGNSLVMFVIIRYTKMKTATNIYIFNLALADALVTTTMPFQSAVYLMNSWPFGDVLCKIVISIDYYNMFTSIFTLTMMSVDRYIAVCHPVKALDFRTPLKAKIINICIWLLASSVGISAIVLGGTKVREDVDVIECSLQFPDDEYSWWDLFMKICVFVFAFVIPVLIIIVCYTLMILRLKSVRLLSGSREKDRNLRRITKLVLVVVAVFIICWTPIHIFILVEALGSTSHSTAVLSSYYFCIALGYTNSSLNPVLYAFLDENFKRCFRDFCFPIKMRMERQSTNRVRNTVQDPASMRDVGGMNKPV
# experimental-details: Receptor binding κ-opiate
# protocol-conditions: radioligand [3H]-U 69593, read-out: Ki(nM) Compound 1
# Protocol: Receptor binding data were obtained by CEREP (128, rue Danton, 92500 Rueil-Malmaison, France) or at Solvay Pharmaceuticals B.V., using well documented standard procedures. Affinity for 5-HT1A receptors for instance, was determined by testing the ability of the compounds of the invention to displace [^3H]-2-(di-n-propylamino)-8-hydroxytetralin ([^3H]-8-OH-DPAT) from its specific binding sites in rat frontal cortex homogenates. […]
result-type: Ki

Recorded Ki of `Nc1cc2cccc(N3CCNCC3)c2oc1=O` , please.
> 1000 nM

---

# experimental-system: β3-adrenergic (Homo sapiens)
# Sequence (P13945 whole entry): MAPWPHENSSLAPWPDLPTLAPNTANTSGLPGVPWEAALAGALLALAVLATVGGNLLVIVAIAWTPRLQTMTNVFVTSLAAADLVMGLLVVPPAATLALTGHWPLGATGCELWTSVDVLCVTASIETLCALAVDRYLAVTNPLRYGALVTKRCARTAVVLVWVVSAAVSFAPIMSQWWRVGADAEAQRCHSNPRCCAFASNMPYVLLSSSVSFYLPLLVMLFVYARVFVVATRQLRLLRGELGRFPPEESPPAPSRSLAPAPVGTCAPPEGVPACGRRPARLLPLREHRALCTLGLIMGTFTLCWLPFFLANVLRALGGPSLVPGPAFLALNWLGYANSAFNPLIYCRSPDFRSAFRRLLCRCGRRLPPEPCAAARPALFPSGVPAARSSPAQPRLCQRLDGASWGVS
# experimental-details: Receptor binding β3-adrenergic
# protocol-conditions: radioligand [125I]-iodocyanopindolol, read-out: Ki(nM) Compound 1
result-type: Ki

# query: Ki of entry `Nc1cc2cccc(N3CCNCC3)c2oc1=O`
> 1000 nM

---

# experimental-system: α1A-adrenergic (Rattus norvegicus)
# Sequence (P43140 whole entry): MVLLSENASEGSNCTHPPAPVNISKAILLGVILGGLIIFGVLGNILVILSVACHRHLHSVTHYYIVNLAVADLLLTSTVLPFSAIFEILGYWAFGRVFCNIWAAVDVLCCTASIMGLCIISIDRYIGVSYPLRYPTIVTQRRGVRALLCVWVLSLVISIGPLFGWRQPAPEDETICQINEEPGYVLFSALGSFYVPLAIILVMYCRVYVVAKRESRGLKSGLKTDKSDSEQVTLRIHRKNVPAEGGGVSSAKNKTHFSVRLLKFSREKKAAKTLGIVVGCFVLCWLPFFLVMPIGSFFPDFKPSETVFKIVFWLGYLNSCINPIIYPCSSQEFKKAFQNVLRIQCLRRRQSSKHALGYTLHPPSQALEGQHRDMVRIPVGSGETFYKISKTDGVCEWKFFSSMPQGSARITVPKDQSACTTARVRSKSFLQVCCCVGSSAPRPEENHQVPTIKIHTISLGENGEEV
# experimental-details: Receptor binding α1A-adrenergic
# protocol-conditions: radioligand [3H]-prazosin, read-out: Ki(nM) Compound 1
result-type: Ki (nM)
Write down the numeric answer in nM and omit the unit.

Which Ki is reported for this compound? Nc1cc2cccc(N3CCNCC3)c2oc1=O [Compound 1]
630

---

# experimental-system: UniProt:P32239
# Sequence (P32239 whole entry): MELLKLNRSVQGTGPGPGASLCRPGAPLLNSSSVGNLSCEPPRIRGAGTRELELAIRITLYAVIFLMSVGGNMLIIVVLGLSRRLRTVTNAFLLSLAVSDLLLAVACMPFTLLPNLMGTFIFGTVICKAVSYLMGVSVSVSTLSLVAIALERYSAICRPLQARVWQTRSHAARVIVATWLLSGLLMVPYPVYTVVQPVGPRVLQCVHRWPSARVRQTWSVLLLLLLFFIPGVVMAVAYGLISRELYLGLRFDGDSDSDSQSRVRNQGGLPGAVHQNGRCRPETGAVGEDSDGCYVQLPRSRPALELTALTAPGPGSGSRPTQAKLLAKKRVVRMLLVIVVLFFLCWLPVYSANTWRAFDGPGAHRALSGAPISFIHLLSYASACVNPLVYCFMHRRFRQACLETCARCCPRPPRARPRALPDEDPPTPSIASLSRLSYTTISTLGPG
# experimental-details: Receptor binding CCKB
# protocol-conditions: radioligand [3H]-CCK8, read-out: Ki(nM) Compound 1
result-type: Ki

Using the record for Nc1cc2cccc(N3CCNCC3)c2oc1=O [Compound 1] , report its Ki.
> 1000 nM

---

# experimental-system: 5-HT6 (Homo sapiens)
# Sequence (P50406 whole entry): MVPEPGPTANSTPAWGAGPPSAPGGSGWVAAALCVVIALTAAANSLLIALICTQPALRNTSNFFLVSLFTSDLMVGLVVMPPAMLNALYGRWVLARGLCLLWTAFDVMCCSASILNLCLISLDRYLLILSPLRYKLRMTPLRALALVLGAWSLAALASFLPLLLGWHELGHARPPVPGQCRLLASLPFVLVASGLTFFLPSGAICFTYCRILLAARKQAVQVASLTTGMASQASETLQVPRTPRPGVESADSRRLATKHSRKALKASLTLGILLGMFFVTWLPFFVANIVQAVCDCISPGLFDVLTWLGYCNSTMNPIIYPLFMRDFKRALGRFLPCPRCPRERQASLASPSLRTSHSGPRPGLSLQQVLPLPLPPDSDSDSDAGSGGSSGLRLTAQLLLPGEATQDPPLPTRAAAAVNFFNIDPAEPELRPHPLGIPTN
# experimental-details: Receptor binding 5-HT6
# protocol-conditions: radioligand [3H]-LSD, read-out: Ki(nM) Compound 1
result-type: Ki

Give its Ki value. Item: `Nc1cc2cccc(N3CCNCC3)c2oc1=O`
> 1000 nM

---

# experimental-system: sigma-SG2 (Rattus norvegicus, UniProt Q5U3Y7)
# Sequence (Q5U3Y7 whole entry): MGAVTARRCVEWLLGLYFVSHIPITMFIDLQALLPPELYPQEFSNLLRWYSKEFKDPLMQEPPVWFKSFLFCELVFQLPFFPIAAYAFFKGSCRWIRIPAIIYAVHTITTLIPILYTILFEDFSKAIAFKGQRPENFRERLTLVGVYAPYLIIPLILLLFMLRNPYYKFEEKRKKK
# experimental-details: Receptor binding sigma-SG2
# protocol-conditions: radioligand [3H]-DTG, read-out: Ki(nM) Compound 1
result-type: Ki

Query (molecule): `Nc1cc2cccc(N3CCNCC3)c2oc1=O` ; field requested: Ki
> 1000 nM

---

# experimental-system: β2-adrenergic (Homo sapiens, UniProt P07550)
# Sequence (P07550 whole entry): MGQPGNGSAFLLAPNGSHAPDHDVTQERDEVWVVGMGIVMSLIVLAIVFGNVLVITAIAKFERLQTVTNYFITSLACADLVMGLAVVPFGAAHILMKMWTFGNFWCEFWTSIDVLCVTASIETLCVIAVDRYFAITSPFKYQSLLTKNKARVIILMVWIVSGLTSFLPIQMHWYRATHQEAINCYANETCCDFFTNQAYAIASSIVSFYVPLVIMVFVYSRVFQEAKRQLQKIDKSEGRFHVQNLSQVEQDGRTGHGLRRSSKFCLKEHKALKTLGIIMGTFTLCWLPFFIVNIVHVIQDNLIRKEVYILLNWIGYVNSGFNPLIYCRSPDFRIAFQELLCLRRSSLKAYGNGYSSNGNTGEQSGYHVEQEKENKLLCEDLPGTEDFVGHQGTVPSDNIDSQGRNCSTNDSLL
# experimental-details: Receptor binding β2-adrenergic
# protocol-conditions: radioligand [3H]-CGP 12177, read-out: Ki(nM) Compound 1
result-type: Ki (nM)
Answer in nM, number only, no unit symbol.

Please look up its Ki: `Nc1cc2cccc(N3CCNCC3)c2oc1=O`
40

---

# experimental-system: Adenosine-A3 (Homo sapiens)
# Sequence (P0DMS8 whole entry): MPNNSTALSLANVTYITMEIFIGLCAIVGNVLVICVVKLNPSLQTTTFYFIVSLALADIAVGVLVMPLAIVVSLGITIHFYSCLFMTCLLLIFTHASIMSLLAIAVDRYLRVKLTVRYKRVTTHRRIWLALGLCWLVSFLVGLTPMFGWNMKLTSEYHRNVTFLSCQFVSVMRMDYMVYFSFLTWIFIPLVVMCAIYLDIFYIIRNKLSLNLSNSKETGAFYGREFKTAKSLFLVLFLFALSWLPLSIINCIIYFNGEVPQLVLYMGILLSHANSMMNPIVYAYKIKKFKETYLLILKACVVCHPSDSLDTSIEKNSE
# experimental-details: Receptor binding Adenosine-A3
# protocol-conditions: radioligand [3H]-AB-MECA, read-out: Ki(nM) Compound 1
result-type: Ki

Sample `Nc1cc2cccc(N3CCNCC3)c2oc1=O` — what was its Ki?
> 1000 nM

---

# experimental-system: LTB4 (Cavia porcellus, UniProt H0VYV8)
# experimental-details: Receptor binding LTB4
# protocol-conditions: radioligand [3H]-LTB4; guinea pig; read-out: Ki(nM) Compound 1
result-type: Ki

Could you tell me which Ki is on file for Nc1cc2cccc(N3CCNCC3)c2oc1=O [Compound 1] ?
> 10000 nM

---

# experimental-system: Interleukine-6 (Homo sapiens, UniProt P08887)
# Sequence (P08887 20-468): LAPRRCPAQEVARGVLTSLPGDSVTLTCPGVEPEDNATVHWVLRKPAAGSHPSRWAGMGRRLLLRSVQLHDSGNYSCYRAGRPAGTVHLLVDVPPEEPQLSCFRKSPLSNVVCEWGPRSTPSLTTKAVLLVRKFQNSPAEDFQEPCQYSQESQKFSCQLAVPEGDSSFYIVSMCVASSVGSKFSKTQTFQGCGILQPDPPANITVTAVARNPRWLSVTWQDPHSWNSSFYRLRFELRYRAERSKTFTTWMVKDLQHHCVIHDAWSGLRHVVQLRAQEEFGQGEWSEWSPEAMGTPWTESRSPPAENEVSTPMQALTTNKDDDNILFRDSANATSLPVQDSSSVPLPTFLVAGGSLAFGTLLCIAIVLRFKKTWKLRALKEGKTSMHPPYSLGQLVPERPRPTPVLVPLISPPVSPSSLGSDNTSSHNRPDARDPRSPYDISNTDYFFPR
# experimental-details: Receptor binding Interleukine-6
# protocol-conditions: radioligand [125I]-interleukine-6, read-out: Ki(nM) Compound 1
result-type: Ki

Entry Nc1cc2cccc(N3CCNCC3)c2oc1=O [Compound 1] : reported Ki = ?
> 10000 nM

---

# experimental-system: Neurokinin-NK2 (Homo sapiens, UniProt P21452)
# Sequence (P21452 whole entry): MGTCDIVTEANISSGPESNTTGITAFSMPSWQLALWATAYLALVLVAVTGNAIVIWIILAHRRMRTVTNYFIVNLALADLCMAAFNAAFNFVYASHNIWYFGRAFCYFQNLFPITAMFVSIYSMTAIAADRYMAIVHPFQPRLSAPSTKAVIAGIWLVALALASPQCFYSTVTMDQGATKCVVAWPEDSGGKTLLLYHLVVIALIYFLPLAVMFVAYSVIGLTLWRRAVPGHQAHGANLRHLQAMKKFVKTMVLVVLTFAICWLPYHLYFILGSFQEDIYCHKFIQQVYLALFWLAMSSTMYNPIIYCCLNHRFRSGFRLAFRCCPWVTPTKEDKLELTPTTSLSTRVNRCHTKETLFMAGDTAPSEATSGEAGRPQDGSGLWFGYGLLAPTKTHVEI
# experimental-details: Receptor binding Neurokinin-NK2
# protocol-conditions: radioligand [125I]-neurokininA, read-out: Ki(nM) Compound 1
result-type: Ki

// query Ki value for entry `Nc1cc2cccc(N3CCNCC3)c2oc1=O`
> 1000 nM

---

# experimental-system: Dopamine-D2 (Homo sapiens, UniProt P14416)
# experimental-details: Receptor binding Dopamine-D2
# protocol-conditions: radioligand [3H]-spiperone, read-out: Ki(nM) Compound 1
result-type: Ki

I would be grateful if you could share the reported Ki for Nc1cc2cccc(N3CCNCC3)c2oc1=O [Compound 1] .
> 1000 nM

---

# experimental-system: 5-HTreuptake (Homo sapiens)
# experimental-details: Binding 5-HT reuptake
# protocol-conditions: radioligand [3H]-paroxetine, read-out: Ki(nM) Compound 1
result-type: Ki

Give the measured Ki of `Nc1cc2cccc(N3CCNCC3)c2oc1=O` .
> 1000 nM

---

# experimental-system: UniProt:P50052
# Sequence (P50052 1-363): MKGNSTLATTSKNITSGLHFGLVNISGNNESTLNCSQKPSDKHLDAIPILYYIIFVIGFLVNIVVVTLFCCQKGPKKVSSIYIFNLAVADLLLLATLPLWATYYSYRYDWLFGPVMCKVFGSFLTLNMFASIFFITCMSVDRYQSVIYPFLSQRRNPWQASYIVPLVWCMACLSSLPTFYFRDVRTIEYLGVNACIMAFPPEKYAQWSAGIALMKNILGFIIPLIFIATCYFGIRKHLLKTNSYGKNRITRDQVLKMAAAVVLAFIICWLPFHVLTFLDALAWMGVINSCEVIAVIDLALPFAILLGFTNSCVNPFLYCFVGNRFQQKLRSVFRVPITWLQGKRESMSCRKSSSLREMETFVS
# experimental-details: Receptor binding angiotensin-AT2
# protocol-conditions: radioligand [125I]-CPG 42112A, read-out: Ki(nM) Compound 1
result-type: Ki

// returns reported Ki for input Nc1cc2cccc(N3CCNCC3)c2oc1=O [Compound 1]
> 1000 nM

---

# experimental-system: β1-adrenergic (Homo sapiens, UniProt P08588)
# Sequence (P08588 whole entry): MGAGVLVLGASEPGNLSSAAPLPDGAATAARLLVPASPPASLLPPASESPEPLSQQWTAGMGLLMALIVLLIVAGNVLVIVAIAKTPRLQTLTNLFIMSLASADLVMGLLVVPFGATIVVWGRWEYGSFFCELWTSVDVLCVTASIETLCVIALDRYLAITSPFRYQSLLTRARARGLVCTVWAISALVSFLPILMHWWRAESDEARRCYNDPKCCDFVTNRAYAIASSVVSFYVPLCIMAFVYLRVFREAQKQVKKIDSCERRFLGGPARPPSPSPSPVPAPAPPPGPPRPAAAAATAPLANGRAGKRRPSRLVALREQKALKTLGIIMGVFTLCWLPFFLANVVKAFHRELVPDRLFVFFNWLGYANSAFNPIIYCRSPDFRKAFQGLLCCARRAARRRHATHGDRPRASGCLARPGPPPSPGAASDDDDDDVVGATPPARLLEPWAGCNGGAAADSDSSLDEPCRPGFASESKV
# experimental-details: Receptor binding β1-adrenergic
# protocol-conditions: radioligand [3H]-CGP 12177, read-out: Ki(nM) Compound 1
result-type: Ki

Please give the measured Ki for this compound: `Nc1cc2cccc(N3CCNCC3)c2oc1=O`
50 nM
